Assay: Plasma protein binding in monkey at 10 uM incubated for 6 hrs by equilibrium dialysis based LC-MS/MS method
Format: ADME, cell-free, Macaca mulatta
Conditions: rhesus monkey, read-out: PPB (converted)
metric: fraction unbound at 6 h, 10 µM
Give only the figure.

get_value(item= O=C1CCN(c2cc(C(=O)N3CCC(CC4CCN(c5ccc(-c6cnc7[nH]cc(-c8cnn(CC(F)(F)F)c8)c7n6)cn5)CC4)CC3)ccc2Cl)C(=O)N1 , readout=fraction unbound at 6 h, 10 µM) returns 0.0002

###

Test: in vitro
Settings: rat, hepatocytes
metric: half-life at 1.5 h, 1 µM
In your response, put the unit directly after the numeric value.

The molecule O=C1CCN(c2cc(C(=O)N3CCC(CC4CCN(c5ccc(-c6cnc7[nH]cc(-c8cnn(CC(F)(F)F)c8)c7n6)cn5)CC4)CC3)ccc2Cl)C(=O)N1 showed half-life at 1.5 h, 1 µM equal to 3.9 h

###

Biological target: Mitogen-activated protein kinase kinase kinase kinase 3 (Homo sapiens)
Sequence (Q8IVH8 whole entry): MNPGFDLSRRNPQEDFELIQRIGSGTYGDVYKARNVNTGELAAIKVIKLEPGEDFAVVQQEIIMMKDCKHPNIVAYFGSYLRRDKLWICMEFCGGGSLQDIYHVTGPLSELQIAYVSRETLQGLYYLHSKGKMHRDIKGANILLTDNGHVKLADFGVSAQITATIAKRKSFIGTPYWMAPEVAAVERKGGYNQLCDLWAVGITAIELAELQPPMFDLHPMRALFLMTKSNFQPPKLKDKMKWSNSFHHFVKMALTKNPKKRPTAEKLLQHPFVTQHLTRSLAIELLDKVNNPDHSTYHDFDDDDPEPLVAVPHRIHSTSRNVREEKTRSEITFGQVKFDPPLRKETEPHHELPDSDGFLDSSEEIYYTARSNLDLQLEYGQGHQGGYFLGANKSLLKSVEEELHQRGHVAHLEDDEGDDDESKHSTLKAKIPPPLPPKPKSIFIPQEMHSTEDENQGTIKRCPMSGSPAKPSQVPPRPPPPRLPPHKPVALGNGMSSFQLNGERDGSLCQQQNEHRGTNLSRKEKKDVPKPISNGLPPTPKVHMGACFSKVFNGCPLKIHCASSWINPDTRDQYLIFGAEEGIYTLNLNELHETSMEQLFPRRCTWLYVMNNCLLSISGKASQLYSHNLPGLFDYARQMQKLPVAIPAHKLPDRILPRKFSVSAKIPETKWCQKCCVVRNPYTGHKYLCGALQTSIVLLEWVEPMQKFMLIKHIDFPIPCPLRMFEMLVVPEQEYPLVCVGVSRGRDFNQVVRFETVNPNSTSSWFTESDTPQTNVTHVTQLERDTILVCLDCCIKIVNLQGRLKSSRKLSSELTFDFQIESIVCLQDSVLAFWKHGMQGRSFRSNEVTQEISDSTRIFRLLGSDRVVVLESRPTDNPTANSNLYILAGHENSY
Assay: Inhibition of GLK (unknown origin)
metric: IC50

Measured IC50 of CCN1CCC(n2cc(-c3c[nH]c4ncc(-c5cnc(OCC6CCOCC6)c(F)c5)nc34)cn2)CC1 : 0.0636 µM

###

Assay: AUC(0 to 24 hrs) in female Sprague-Dawley rat at 100 mg/kg/day, po measured at day 1
Assay type: ADME, organism-based
Details: in vivo, time 1 day
metric: AUC(0-t) at 24 h (µg·h/mL)
Report the value in µg·h/mL with no unit label.

Reported AUC(0-t) at 24 h ( O=C1CCN(c2cc(C(=O)N3CCC(CC4CCN(c5ccc(-c6cnc7[nH]cc(-c8cnn(CC(F)(F)F)c8)c7n6)cn5)CC4)CC3)ccc2Cl)C(=O)N1 ) = 110

###

Test: in vivo
Details: female, Sprague-Dawley, rat, po, 30 mg/kg
metric: Cmax at 24 h (ng/mL)
Write it as a number; the unit ng/mL goes unstated.

Note to self: Cmax at 24 h recorded for O=C1CCN(c2cc(C(=O)N3CCC(CC4CCN(c5ccc(-c6cnc7[nH]cc(-c8cnn(CC(F)(F)F)c8)c7n6)cn5)CC4)CC3)ccc2Cl)C(=O)N1 was 4900

###

Experiment: Tmax in female Sprague-Dawley rat at 30 mg/kg/day, po measured at day 1
Assay type: ADME, organism-based
Settings: in vivo, time 1 day
metric: Tmax (h)
Please give a number only; it is taken to be in h.

Recorded result, O=C1CCN(c2cc(C(=O)N3CCC(CC4CCN(c5ccc(-c6cnc7[nH]cc(-c8cnn(CC(F)(F)F)c8)c7n6)cn5)CC4)CC3)ccc2Cl)C(=O)N1 , Tmax: 8

###

Experiment: in vivo
Conditions: female, Sprague-Dawley, rat, po, 100 mg/kg
metric: Cmax at 24 h (ng/mL)
Kindly provide the numeric value in ng/mL only, without the unit symbol.

Consider O=C1CCN(c2cc(C(=O)N3CCC(CC4CCN(c5ccc(-c6cnc7[nH]cc(-c8cnn(CC(F)(F)F)c8)c7n6)cn5)CC4)CC3)ccc2Cl)C(=O)N1 . Its measured Cmax at 24 h is 11200

###

Experiment: Tmax in male Sprague-Dawley rat at 30 mg/kg/day, po measured at day 14
Assay type: ADME, organism-based
Settings: in vivo, time 14 day
metric: Tmax (h)
Numeric answer only, unit h assumed.

The measured Tmax associated with O=C1CCN(c2cc(C(=O)N3CCC(CC4CCN(c5ccc(-c6cnc7[nH]cc(-c8cnn(CC(F)(F)F)c8)c7n6)cn5)CC4)CC3)ccc2Cl)C(=O)N1 reads 8

###

Assay: AUC(0 to 24 hrs) in male Sprague-Dawley rat at 2 mg/kg/day, po measured at day 1
Format: ADME, organism-based
Conditions: in vivo, time 1 day
metric: AUC(0-t) at 24 h (ng·h/mL)
Your answer is read as ng·h/mL, so omit the unit and give the number.

molecule O=C1CCN(c2cc(C(=O)N3CCC(CC4CCN(c5ccc(-c6cnc7[nH]cc(-c8cnn(CC(F)(F)F)c8)c7n6)cn5)CC4)CC3)ccc2Cl)C(=O)N1 , AUC(0-t) at 24 h observed: 1040

###

Experiment: in vitro
Settings: dog, hepatocytes
metric: half-life at 1.5 h, 1 µM (h)
# unit: h | format: bare number

response.value for O=C1CCN(c2cc(C(=O)N3CCC(CC4CCN(c5ccc(-c6cnc7[nH]cc(-c8cnn(CC(F)(F)F)c8)c7n6)cn5)CC4)CC3)ccc2Cl)C(=O)N1 (field: half-life at 1.5 h, 1 µM) = 3.47

###

Target: Cytochrome P450 2B6 (Homo sapiens, UniProt P20813)
Sequence (P20813 whole entry): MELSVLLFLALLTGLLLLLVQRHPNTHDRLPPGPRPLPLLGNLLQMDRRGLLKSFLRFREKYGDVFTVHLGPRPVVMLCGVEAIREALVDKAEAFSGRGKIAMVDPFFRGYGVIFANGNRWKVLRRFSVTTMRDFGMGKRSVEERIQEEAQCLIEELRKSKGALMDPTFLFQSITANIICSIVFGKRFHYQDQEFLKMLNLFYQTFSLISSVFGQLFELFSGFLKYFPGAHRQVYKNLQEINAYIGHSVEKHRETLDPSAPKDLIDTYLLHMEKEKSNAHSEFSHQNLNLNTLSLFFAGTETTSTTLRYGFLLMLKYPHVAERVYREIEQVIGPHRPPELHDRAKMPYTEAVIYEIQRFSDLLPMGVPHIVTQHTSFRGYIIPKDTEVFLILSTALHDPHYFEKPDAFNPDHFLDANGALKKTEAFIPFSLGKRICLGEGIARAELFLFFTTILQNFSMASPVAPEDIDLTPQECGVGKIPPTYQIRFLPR
metric: IC50

Kindly note: Cytochrome P450 2B6 (Homo sapiens, UniProt P20813), O=C1CCN(c2cc(C(=O)N3CCC(CC4CCN(c5ccc(-c6cnc7[nH]cc(-c8cnn(CC(F)(F)F)c8)c7n6)cn5)CC4)CC3)ccc2Cl)C(=O)N1 , IC50 value reported: > 10 µM

###

Assay: in vitro
Details: dog, liver microsomes
metric: half-life at 0.75 h, 1 µM (h)
Write the answer as a number in h, unit excluded.

Reported half-life at 0.75 h, 1 µM for O=C1CCN(c2cc(C(=O)N3CCC(CC4CCN(c5ccc(-c6cnc7[nH]cc(-c8cnn(CC(F)(F)F)c8)c7n6)cn5)CC4)CC3)ccc2Cl)C(=O)N1 was 1.14

###

Assay: Half-life in Beagle dog at 5 mg/kg, po measured upto 24 hrs by LC-MS analysis
Settings: in vivo
metric: half-life at 24 h (h)
Provide only the numeric value, understood in h.

The recorded half-life at 24 h for entry O=C1CCN(c2cc(C(=O)N3CCC(CC4CCN(c5ccc(-c6cnc7[nH]cc(-c8cnn(CC(F)(F)F)c8)c7n6)cn5)CC4)CC3)ccc2Cl)C(=O)N1 equals 4.23

###

Test: Metabolic stability in rat liver microsomes assessed as intrinsic clearance at 1 uM incubated for 45 mins by LC-MS/MS method
Format: ADME, Microsome
Details: read-out: CLH
metric: microsomal CLint at 1 µM
Give the number first and the unit second.

The recorded microsomal CLint at 1 µM for entry O=C1CCN(c2cc(C(=O)N3CCC(CC4CCN(c5ccc(-c6cnc7[nH]cc(-c8cnn(CC(F)(F)F)c8)c7n6)cn5)CC4)CC3)ccc2Cl)C(=O)N1 equals 5.62 µL/min/mg

###

Experiment: in vivo
Conditions: male, Sprague-Dawley, rat, po, 2 mg/kg
metric: Cmax at 336 h (ng/mL)
Write the number in ng/mL without appending the unit.

Quick note, Cmax at 336 h for O=C1CCN(c2cc(C(=O)N3CCC(CC4CCN(c5ccc(-c6cnc7[nH]cc(-c8cnn(CC(F)(F)F)c8)c7n6)cn5)CC4)CC3)ccc2Cl)C(=O)N1 landed at 64.2

###

Assay: AUC(0 to 24 hrs) in male Sprague-Dawley rat at 100 mg/kg/day, po measured at day 1
Format: ADME, organism-based
Conditions: in vivo, time 1 day
metric: AUC(0-t) at 24 h (µg·h/mL)
The reply should be a number in µg·h/mL, with the unit left off.

For O=C1CCN(c2cc(C(=O)N3CCC(CC4CCN(c5ccc(-c6cnc7[nH]cc(-c8cnn(CC(F)(F)F)c8)c7n6)cn5)CC4)CC3)ccc2Cl)C(=O)N1 the molecule record lists AUC(0-t) at 24 h as 107

###

Assay: in vivo
Details: female, Sprague-Dawley, rat, po, 2 mg/kg
metric: Cmax at 336 h (ng/mL)
Express the result in ng/mL but write the number alone.

Entry O=C1CCN(c2cc(C(=O)N3CCC(CC4CCN(c5ccc(-c6cnc7[nH]cc(-c8cnn(CC(F)(F)F)c8)c7n6)cn5)CC4)CC3)ccc2Cl)C(=O)N1 , Cmax at 336 h reported as 140

###

Assay: Apparent permeability across apical to basolateral side in human Caco-2 cells at 10 uM incubated for 2 hrs by LC-MS/MS analysis
Format: ADME, cell-based
metric: Papp A→B at 2 h, 10 µM (×10⁻⁶ cm/s)
Just the number please, in ×10⁻⁶ cm/s, no unit attached.

The compound O=C1CCN(c2cc(C(=O)N3CCC(CC4CCN(c5ccc(-c6cnc7[nH]cc(-c8cnn(CC(F)(F)F)c8)c7n6)cn5)CC4)CC3)ccc2Cl)C(=O)N1 showed Papp A→B at 2 h, 10 µM equal to 0.16

###

Assay: AUCinfinity in Sprague-Dawley rat at 2 mg/kg, iv measured upto 24 hrs by LC-MS analysis
Type: ADME, organism-based
Settings: in vivo
metric: AUC(0-inf) (ng·h/mL)
# number only, unit ng·h/mL dropped from output

What the record says about O=C1CCN(c2cc(C(=O)N3CCC(CC4CCN(c5ccc(-c6cnc7[nH]cc(-c8cnn(CC(F)(F)F)c8)c7n6)cn5)CC4)CC3)ccc2Cl)C(=O)N1 : AUC(0-inf) is 8220

###

Experiment: Metabolic stability in human liver microsomes assessed as intrinsic clearance at 1 uM incubated for 45 mins by LC-MS/MS method
Format: ADME, Microsome
Settings: read-out: CLH
metric: microsomal CLint at 1 µM (µL/min/mg)
Value expressed in µL/min/mg; do not type the unit.

According to the records, this compound O=C1CCN(c2cc(C(=O)N3CCC(CC4CCN(c5ccc(-c6cnc7[nH]cc(-c8cnn(CC(F)(F)F)c8)c7n6)cn5)CC4)CC3)ccc2Cl)C(=O)N1 displays microsomal CLint at 1 µM of 3.48
